The measured values listed here are drawn from ChEMBL document CHEMBL5316304.

# procedure text: Intrinsic clearance in human liver microsomes at 1 uM incubated for 15 to 30 mins by LC/MS/MS analysis
# Format: ADME, Microsome
# condition: time 15-30 min
measured metric: CLint (µL/min/mg)
Supply the numeric figure in µL/min/mg, leaving out any unit text.

Solved cases below.
compound: c1ccc(-c2nc(NC3(c4ccccn4)CC3)c3ccccc3n2)nc1
measured metric: CLint
unit info: µL/min/mg
data value: 7
--
compound: c1ccc(C2CCCN(c3nc(-c4ccccn4)nc4ccccc34)C2)cc1 (stereo not given)
measured metric: CLint
unit info: µL/min/mg
data value: 205
--
compound: c1ccc(-c2nc(N3CCc4ccccc4C3)c3ccccc3n2)nc1
measured metric: CLint
unit info: µL/min/mg
data value: 150
--
compound: CC1CCN(c2nc(-c3ccccn3)nc3ccccc23)CC1
measured metric: CLint
unit info: µL/min/mg
data value: 112
--
compound: c1ccc(OC2CCN(c3nc(-c4ccccn4)nc4ccccc34)C2)cc1 (stereo not given)
measured metric: CLint
unit info: µL/min/mg
data value: 361

Req: Could you tell me which CLint is on file for CC1CCCN(c2nc(-c3ccccn3)nc3ccccc23)C1 (stereo not given) ?
Resp: 188

Req: Field entry: c1ccc(-c2nc(N3CCC(c4ccccn4)C3)c3ccccc3n2)nc1 (racemic)
Resp: 73

Req: Field entry: c1ccc(N2CCN(c3nc(-c4ccccn4)nc4ccccc34)CC2)cc1
Resp: 95
